test: Human HepG2 cell viability assay in 384 well format; format: toxicity, cell-based; parameters: dose 125 nL, time 70.5 hour; concentration not given beside the values; settings: HepG2 cells, read-out: Inhibition
PARAMETER: cytotoxicity at 70.5 h (%)
Your answer should be a plain number; it is taken to be in %.

Lab note: CC(C)CN1CCN(S(=O)(=O)c2cn(C)cn2)Cc2cccnc21 gave cytotoxicity at 70.5 h of -10.6

Lab note: O=C(c1csc(-c2ncccn2)n1)N1CCCC1Cn1cccn1 (stereo unspecified) gave cytotoxicity at 70.5 h of 22.5

Lab note: O=C(CCn1ccnc1)N1CC[C@H](Oc2cccc(F)c2)[C@@H](O)CC1 gave cytotoxicity at 70.5 h of 28.5

Lab note: Cc1cccc(C)c1OCC(C)Nc1nc(N)nc2c1CCNC2 (stereo unspecified) gave cytotoxicity at 70.5 h of -11.5

Lab note: Cc1csc([C@H]2C[C@@H]3CCN(Cc4cc(C)on4)C[C@H]3O2)n1 gave cytotoxicity at 70.5 h of -5.27

Lab note: CNC(=O)CCNC(=O)Nc1cccc(Cl)c1SC(F)F gave cytotoxicity at 70.5 h of 0.534

Lab note: COc1ccc(-c2cc(C(=O)NCCC(C)C)n(C)n2)cc1 gave cytotoxicity at 70.5 h of 4.25

Lab note: Cn1cc(N2C[C@@H]3CN(Cc4ccoc4)C[C@@H]3C2=O)cn1 gave cytotoxicity at 70.5 h of -2.46

Lab note: Cc1ccc(C(=O)CC(SC2CCCCC2)C(=O)O)cc1 (stereo unspecified) gave cytotoxicity at 70.5 h of -2.59

Lab note: CCn1nc2c(cc1=O)CN(Cc1coc(-c3ccccc3)n1)CC2 gave cytotoxicity at 70.5 h of -3.27

Lab note: C=C(C)COc1cccc(C(=O)N(CC)Cc2nc(COC)no2)c1 gave cytotoxicity at 70.5 h of -7.82

---

Would you kindly list cytotoxicity at 70.5 h for each of these compounds?
assay: Human HepG2 cell viability assay in 384 well format; type: toxicity, cell-based; design: dose 125 nL, time 70.5 hour; concentration not given beside the values; conditions: HepG2 cells, read-out: Inhibition
Your answer should be a plain number; it is taken to be in %.

Lab note: Nc1nccnc1C1CN(C(=O)c2ccc3c(c2)OCO3)CCO1 (stereo not drawn) gave cytotoxicity at 70.5 h of -13.9

Lab note: CCCS(=O)(=O)N1Cc2nccn2CC(CN(C)C)C1 (stereo not drawn) gave cytotoxicity at 70.5 h of -10.3

Lab note: COc1ccc(CNC(=O)NCc2ccc(C(N)=O)cc2)cn1 gave cytotoxicity at 70.5 h of -2.22

Lab note: Cn1c(CCNC(=O)C2CCCN(C3CCOCC3)C2)n[nH]c1=O (stereo not drawn) gave cytotoxicity at 70.5 h of -1.23

Lab note: Cc1ccc(C)c(-c2[nH]c3ccccc3c2C(=O)O)c1 gave cytotoxicity at 70.5 h of -12.7

Lab note: Cc1cc(CN2CC[C@H]3OCC[C@@]3(C(=O)NC(C)C)C2)no1 gave cytotoxicity at 70.5 h of 3.85

Lab note: CC(=O)NC(C)(C)c1noc(C2(C#N)CCCCC2)n1 gave cytotoxicity at 70.5 h of -3.45

Lab note: Cc1nc(C(=O)N2CCCCC2c2ccc(CN(C)C)cc2)c(C)o1 (stereo not drawn) gave cytotoxicity at 70.5 h of -4.13

Lab note: CC1CN(CCc2ccccn2)CCN1c1ccc2nncn2n1 (stereo not drawn) gave cytotoxicity at 70.5 h of -3.22

Lab note: COc1ccc(-n2cnnc2SCC(C)(C)O)cn1 gave cytotoxicity at 70.5 h of -3.59

Lab note: COc1c(C2CCCN2C(=O)c2ccc(Cl)o2)c(C)nn1C (stereo not drawn) gave cytotoxicity at 70.5 h of -5.88

Lab note: Cc1nc(C2CCCN2C(=O)c2ccccc2)ncc1C(N)=O (stereo not drawn) gave cytotoxicity at 70.5 h of -7.95

Lab note: CCOc1cc(NC(=O)C2CC(=O)N(c3cccc(OC)c3)C2)ncn1 (stereo not drawn) gave cytotoxicity at 70.5 h of -2.94

Lab note: COCc1noc(C2(c3ccc(F)cc3)CCC2)n1 gave cytotoxicity at 70.5 h of -0.0433

Lab note: CS(=O)(=O)c1ccc(CNC2CCCN(c3cccnn3)C2)cc1 (stereo not drawn) gave cytotoxicity at 70.5 h of -6.92

Lab note: Cc1cc(C)n(CCN2CCOC(CNc3cccnn3)C2)n1 (stereo not drawn) gave cytotoxicity at 70.5 h of -4.33

Lab note: CCn1cc(CN2CCCN(C(=O)c3sccc3OC)CC2)cn1 gave cytotoxicity at 70.5 h of 3.74

Lab note: CN1CCN(Cc2cccc(NCc3cc[nH]n3)c2)CC1 gave cytotoxicity at 70.5 h of -5.29

Lab note: Cc1ccc(N(CCC#N)C(=O)CN2CCCC2c2cccs2)cc1 (stereo not drawn) gave cytotoxicity at 70.5 h of -2.42

Lab note: Cc1nc(C)n(CC2CCCN(CCCS(=O)(=O)N(C)C)C2)n1 (stereo not drawn) gave cytotoxicity at 70.5 h of -0.887

Lab note: Cc1cccc(NC(=O)N2CC(C(=O)NC(C)C)C3(CCOCC3)C2)c1 (stereo not drawn) gave cytotoxicity at 70.5 h of 9.15

Lab note: Cc1nc(NCCCn2cccn2)c2c(n1)c(C)nn2C gave cytotoxicity at 70.5 h of -3.99

Lab note: O=C(c1ccsc1)N1CCC2(CCN(Cc3ccccn3)C2=O)C1 (stereo not drawn) gave cytotoxicity at 70.5 h of 2.48

Lab note: Cn1ccnc1-c1noc(NCc2ccccc2)n1 gave cytotoxicity at 70.5 h of -7.49

Lab note: NC1(c2nc(-c3cccs3)cc(=O)[nH]2)CCCC1 gave cytotoxicity at 70.5 h of 8.08

Lab note: CCOCCOCc1cccc(CNc2cncc(-n3cccn3)n2)c1 gave cytotoxicity at 70.5 h of -2.12

Lab note: COCC(O)CNC(=O)Nc1c(F)cc(F)cc1-c1ccccc1 (stereo not drawn) gave cytotoxicity at 70.5 h of -11.2

Lab note: CCN(C)CC(=O)N1CCC(c2cc(N3CCOCC3)nc(C)n2)CC1 gave cytotoxicity at 70.5 h of -11.5

Lab note: O=C(C1CC1)N1CC2(CCNCC2)c2cc(F)ccc21 gave cytotoxicity at 70.5 h of -11.1

Lab note: COc1ccccc1CNC(=O)c1ccccc1-n1cnc(CN)c1 gave cytotoxicity at 70.5 h of -9.04

Lab note: CN(Cc1cccnc1)CC1CN(C(=O)C2CC2)Cc2nccn2C1 (stereo not drawn) gave cytotoxicity at 70.5 h of -7.48

Lab note: O=C1COc2cc(C(=O)NS(=O)(=O)c3cc(Cl)ccc3Cl)ccc2N1 gave cytotoxicity at 70.5 h of -8.05

Lab note: NCC1CCN(c2cnn(CCCn3cccn3)c(=O)c2)CC1 gave cytotoxicity at 70.5 h of -8.18

Lab note: O=C(COCC(=O)N1CCCCCC1)NCc1cccc(Br)c1 gave cytotoxicity at 70.5 h of 0.154

Lab note: COc1cc(Cl)ccc1C(=O)NCc1n[nH]c(C)n1 gave cytotoxicity at 70.5 h of 1.46

Lab note: CN(c1nc(Cn2cc(Br)ccc2=O)cs1)C1CC1 gave cytotoxicity at 70.5 h of -4.85

Lab note: CCS(=O)(=O)N1C[C@H]2CC[C@@]3(N=C(C)N(CC(C)C)C3=O)[C@H]2C1 gave cytotoxicity at 70.5 h of -10.8

Lab note: CN(C)C(=O)CN1CCC2(CCCN(Cc3cccn3C)C2)C1=O (stereo not drawn) gave cytotoxicity at 70.5 h of 25.7

Lab note: CCN(CC)C(=O)c1cccc(Cn2nc(C)cc2C)c1 gave cytotoxicity at 70.5 h of -8.82

Lab note: O=C1C(Sc2nc(=O)ccn2C2CC2)CCN1c1ccccc1 (stereo not drawn) gave cytotoxicity at 70.5 h of 0.555

Lab note: CCC(CNc1ncnc2oc(C)nc12)Cc1ccccc1 (stereo not drawn) gave cytotoxicity at 70.5 h of -1.88

Lab note: COc1ccccc1C1(CNc2cn[nH]c(=O)c2Cl)CC1 gave cytotoxicity at 70.5 h of -12.7

Lab note: CC(C)c1nc(CN2CCOC(Cn3cccn3)C2)no1 (stereo not drawn) gave cytotoxicity at 70.5 h of 1.63

Lab note: Cn1c(=O)[nH]c(=O)n2c(CC(=O)Nc3ccc(Cl)c(Cl)c3)cnc12 gave cytotoxicity at 70.5 h of -12.5

Lab note: c1cncc(COCC2CNCc3nccn3C2)c1 (stereo not drawn) gave cytotoxicity at 70.5 h of 3.07

Lab note: CC(=O)N(C)CC(=O)NCC1(c2cccc(C)c2)CCCC1 gave cytotoxicity at 70.5 h of 1.29

Lab note: CCn1cnnc1C1CCN(C(=O)c2cc(C)c(C)s2)CC1 gave cytotoxicity at 70.5 h of 15.5

Lab note: COc1cccc(CNC(=O)c2cccnc2N)c1 gave cytotoxicity at 70.5 h of 6.88
